FYI, the data here is from patent US7829560B2.

tested.target: p38α (Homo sapiens, UniProt Q16539)
Construct: p38 MAP Kinases are recombinant human full-length proteins with an amino-terminal GST fusion; GST (N); purchased Upstate Biotechnology Inc; host or cells: E. coli
Sequence (Q16539 whole entry, the tested form may be a part): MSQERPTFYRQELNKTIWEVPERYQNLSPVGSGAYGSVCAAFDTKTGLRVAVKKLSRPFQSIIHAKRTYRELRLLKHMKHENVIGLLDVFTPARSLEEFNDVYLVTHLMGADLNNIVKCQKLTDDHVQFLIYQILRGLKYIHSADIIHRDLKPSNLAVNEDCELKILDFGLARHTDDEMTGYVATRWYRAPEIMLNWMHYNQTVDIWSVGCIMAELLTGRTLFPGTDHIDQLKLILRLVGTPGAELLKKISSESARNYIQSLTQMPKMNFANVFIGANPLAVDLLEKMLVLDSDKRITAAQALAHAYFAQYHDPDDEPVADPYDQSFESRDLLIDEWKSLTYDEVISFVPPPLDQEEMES
protocol.description: p38 MAP Kinase assay: inhibition of ATF2 phosphorylation, ELISA
Type: biochemical
condition.set: 10 uM; substrate ATF2; read-out: [ENZ] P38 ALPHA, PCT INH, ELISA (10 uM;ATF2) (Percent)
readout.type: inhibition at 10 µM (%)

O=C(Nc1ccc(OCCN2CCOCC2)c2ccccc12)c1cc(F)cc(N2CCCCCC2)c1 ... 85
O=C(Nc1ccc(OCCN2CCOCC2)c2ccccc12)c1cccc(-c2cc(Cl)cc(Cl)c2Cl)c1 ... 39
O=C(Nc1ccc(OCCN2CCOCC2)c2ccccc12)c1cccc(-c2cccc(Cl)c2)c1 ... 71
CCCCc1ccc(-c2cccc(C(=O)Nc3ccc(OCCN4CCOCC4)c4ccccc34)c2)cc1 ... 4
COc1cccc(OC)c1-c1cccc(C(=O)Nc2ccc(OCCN3CCOCC3)c3ccccc23)c1 ... 42
O=C(Nc1ccc(OCCN2CCOCC2)c2ccccc12)c1ccnc(N2Cc3ccccc3C2)c1 ... 36

[A] Cc1ccc(-c2cccc(C(=O)Nc3ccc(OCCN4CCOCC4)c4ccccc34)c2)cc1
[B] CCOC(=O)C1CCN(CCOc2ccc(NC(=O)c3cc(F)cc(N4CCCCC4)c3)c3ccccc23)CC1
Larger number for inhibition at 10 µM: A , or B ? Pick one and reply with its label.
B

###

tested.target: p38α (Homo sapiens, UniProt Q16539)
Construct: p38 MAP Kinases are recombinant human full-length proteins with an amino-terminal GST fusion; GST (N)
protocol.description: p38 MAP Kinase assay: inhibition of ATF2 phosphorylation, ELISA
condition.set: ATF2 phosphorylation; read-out: [ENZ] P38 ALPHA, IC50, ELISA
pIC50: −log10 of the molar value.
readout.type: pIC50

Consider the worked cases shown below.
CC(C)N(C)c1nccc(Oc2ccc(NC(=O)c3cc(F)cc(N4CCOCC4)c3)c3ccccc23)n1 ... 7.35
O=C(Nc1ccc(Oc2ccnc(NC3(CO)CCCC3)n2)c2ccccc12)c1cc(F)cc(N2CCCCC2)c1 ... 7.90
CN(C)CC(C)(C)CNc1nccc(Oc2ccc(NC(=O)c3cc(F)cc(N4CCOCC4)c3)c3ccccc23)n1 ... 8.00

[P] N#CNc1nccc(Oc2ccc(NC(=O)c3cc(F)cc(N4CCCCC4)c3)c3ccccc23)n1
[Q] O=C(Nc1ccc(Oc2ccnc(NC3CCS(=O)(=O)C3)n2)c2ccccc12)c1cc(F)cc(N2CCOCC2)c1 (stereo not drawn)
Min pIC50? P | Q Kindly give the label for the entry you pick.
Q

###

tested.target: p38α (Homo sapiens, UniProt Q16539)
Construct: p38 MAP Kinases are recombinant human full-length proteins with an amino-terminal GST fusion; GST (N)
protocol.description: p38 MAP Kinase assay: inhibition of ATF2 phosphorylation, ELISA
condition.set: ATF2 phosphorylation; read-out: [ENZ] P38 ALPHA, IC50, ELISA
readout.type: IC50 (µM)

Reference set (2 entries):
O=C(Nc1ccc(Oc2ccnc(NC[C@@H]3CCCO3)n2)c2ccccc12)c1cc(F)cc(N2CCOCC2)c1 ... 0.0032
CN(CC1OCCO1)c1nccc(Oc2ccc(NC(=O)c3cc(F)cc(N4CCCCC4)c3)c3ccccc23)n1 ... 0.0313

[I] O=C(Nc1ccc(Oc2ccnc(N3CCC(F)(F)CC3)n2)c2ccccc12)c1cc(F)cc(N2CCOCC2)c1
[II] O=C1CCN(c2cc(F)cc(C(=O)Nc3ccc(OCCN4CCOCC4)c4ccccc34)c2)CC1
// compare measured IC50, left I , right II , return larger Pick one and reply with its label.
II
(II: 1.77 µM, I: 0.0555 µM)
